target: T1, RSV F ectodomain stabilized in the postfusion conformation (F ΔFP), subtype A (Respiratory syncytial virus subtype A, UniProt P03420 26-109; P03420 147-524); assay: BLI, IgG on AHQ sensors, 100 nM antigen
T1 construct: extracellular domain; trimer; also called Postfusion subtype A; Postfusion RSV F
pKd: −log10 of the molar value.

binder	pKd
ADI-14551 (antibody, V domains shown, IgG) VH: QVQLQESGPGLVKPSETLSLTCSVSGGSIKRGAYFWTWIRQRPGKGLEWIGSMHDSGDYYNPSLKTRVTILGDTTKNHFTLKLTSVTVADTALYYCARGRGYSYGWRFFDNWGQGTLVTVSS VL: NFMLTQPPSVSVSPGHSTRITCSGDALPKQYAYWYQQKPGQAPVLIMSKDSERPSGIPERFTGSSSGTTVTLTISGVQAEDEADYYCQSGDTSGSYVVFGGGTKVTVL	9.68
ADI-14560 (antibody, V domains shown, IgG; also called Antibody Number 120) VH: QVQLVQSGPELKKPGESLKISCKASGYSFTSFWIAWVRQMPGKGLEFLGIIYPGDADTRYSPSFQGQVTISADKSINTAYLQWNNLKASDTAMYYCARQTTMTPDAFDLWGQGTTVTVSS VL: EIVLTQSPATLSLSPGERATISCRASQSVSSYLAWYQQKPGQAPRLLIYEASDRATGTPARFSGSGSGTDFTLTISSLEPEDFAVYYCQQRSNWGVGTFGQGTKVEIK	9.06
ADI-14535 (antibody, V domains shown, IgG; also called Antibody Number 95) VH: QVQLQQWGPGLVKPSQTLSLTCSVSGASVKIGSNFWTWIRQRPGKGLEWIGAIHDTGTTYYNPSLEPQVIISTDTSQNQFSLRLTSVTAADTAVYYCARGRGYTYGWRYFDYWGQGTLVTVSS VL: SYVLTQPPSVSVSPGQTARITCSGDALPKQYAFWYQHKAGQAPVLVIKKDTERPSGIPERFSGSISGTTATLIISGVQAEDEADYYCQSSDSSGNVVLFGGGTQLTVL	9.64
ADI-14532 (antibody, V domains shown, IgG; also called Antibody Number 92) VH: EVQLVESGGGLVKPGGSLRLSCAASGFIFRNAWMSWVRQAPGKGLEWVGRIKRTSEGGSVDYATPVQGRFSISRDDSRKTLYLQMNSLETDDTAVYYCSTGPPYSYFDSSGYSVVDYWGLGTLVTVSS VL: SYELTQPPSASGTPGQRVTISCSASSSNIGDNYFYWYQQLPGKAPTLLMYGSDQRSSGVPDRFSGSQSGTSASLAISGLRSEDEADYYCAAWDDSLSGPVFGGGTQLTVL	9.65
ADI-14530 (antibody, V domains shown, IgG; also called Antibody Number 90) VH: QVQLVQSGAEVKKPGSSVKVSCKVVGGSFSNYGIGWVRQAPGQGPEWMGGIIPAFKTAKYAKKFQDRVTITADESSSTAYMEVRGLRPDDTALYYCARPEGDFGDLKWVRSPFDYWGQGTLVTVSS VL: ETTLTQSPATLSVSPGERVTLSCRASQDVSINLAWYQQKPGQAPRLLIYGASTRATDVPARFSGSGSGTDFTLTISSLQSEDFAFYYCQEYNDWPPQLTFGPGTKVEIK	7.33
